# test target: Microphthalmia-associated transcription factor (Homo sapiens)
# Sequence (O75030 whole entry): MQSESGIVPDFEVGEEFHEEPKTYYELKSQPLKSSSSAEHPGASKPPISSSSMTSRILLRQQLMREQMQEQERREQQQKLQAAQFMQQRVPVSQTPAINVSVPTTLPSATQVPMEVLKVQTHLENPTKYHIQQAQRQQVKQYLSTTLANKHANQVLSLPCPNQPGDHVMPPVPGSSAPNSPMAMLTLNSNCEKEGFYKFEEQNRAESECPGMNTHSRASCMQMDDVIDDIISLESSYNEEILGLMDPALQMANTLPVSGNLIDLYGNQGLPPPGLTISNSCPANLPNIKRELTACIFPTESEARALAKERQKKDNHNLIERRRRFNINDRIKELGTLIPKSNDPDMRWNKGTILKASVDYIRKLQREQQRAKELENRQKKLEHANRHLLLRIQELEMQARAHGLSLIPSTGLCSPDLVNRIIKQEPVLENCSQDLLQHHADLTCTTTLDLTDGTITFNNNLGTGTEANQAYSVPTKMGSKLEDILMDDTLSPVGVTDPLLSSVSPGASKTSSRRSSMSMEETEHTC
# measurement protocol: TRPM1 promoter luciferase signal decrease, dose response, MITF inhibitor project, cell-based, SK-MEL-5, cherry-picked, set 3 (AID 493073);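 note: SK-MEL-5 melanoma cells with luciferase driven by the MITF target TRPM1 promoter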
# Format: functional
The source made the active and inactive calls.
endpoint label: AC50

Request the reported AC50 associated with O=C(N/N=C\c1cc(Br)ccc1O)c1ccc(S(=O)(=O)N2CCCCC2)cc1
1.78 µM (active)

Request the reported AC50 associated with CCOC(=O)c1[nH]cnc1N=Nc1c(O)ccc2ccccc12
3.76 µM (active)

Request the reported AC50 associated with COc1ccc(C(=O)C(CN2CCOCC2)c2ccccc2)cc1 (stereo unspecified)
7.29 µM (active)

Request the reported AC50 associated with Cc1ccc(NC(=O)/C=C/c2ccc([N+](=O)[O-])s2)c(C)c1
4.64 µM (active)

Request the reported AC50 associated with CC1(C)Cc2ccccc2C2=NNC(=O)C2=N1
3.62 µM (active)

Request the reported AC50 associated with Cc1ccccc1Cn1c(=N)n(CC(=O)c2ccc([N+](=O)[O-])cc2)c2ccccc21
5.63 µM (active)

----------
Would you mind telling me the reported EC50 of each entry?
# test target: Protein RecA (Mycobacterium tuberculosis)
# Sequence (P9WHJ3 whole entry): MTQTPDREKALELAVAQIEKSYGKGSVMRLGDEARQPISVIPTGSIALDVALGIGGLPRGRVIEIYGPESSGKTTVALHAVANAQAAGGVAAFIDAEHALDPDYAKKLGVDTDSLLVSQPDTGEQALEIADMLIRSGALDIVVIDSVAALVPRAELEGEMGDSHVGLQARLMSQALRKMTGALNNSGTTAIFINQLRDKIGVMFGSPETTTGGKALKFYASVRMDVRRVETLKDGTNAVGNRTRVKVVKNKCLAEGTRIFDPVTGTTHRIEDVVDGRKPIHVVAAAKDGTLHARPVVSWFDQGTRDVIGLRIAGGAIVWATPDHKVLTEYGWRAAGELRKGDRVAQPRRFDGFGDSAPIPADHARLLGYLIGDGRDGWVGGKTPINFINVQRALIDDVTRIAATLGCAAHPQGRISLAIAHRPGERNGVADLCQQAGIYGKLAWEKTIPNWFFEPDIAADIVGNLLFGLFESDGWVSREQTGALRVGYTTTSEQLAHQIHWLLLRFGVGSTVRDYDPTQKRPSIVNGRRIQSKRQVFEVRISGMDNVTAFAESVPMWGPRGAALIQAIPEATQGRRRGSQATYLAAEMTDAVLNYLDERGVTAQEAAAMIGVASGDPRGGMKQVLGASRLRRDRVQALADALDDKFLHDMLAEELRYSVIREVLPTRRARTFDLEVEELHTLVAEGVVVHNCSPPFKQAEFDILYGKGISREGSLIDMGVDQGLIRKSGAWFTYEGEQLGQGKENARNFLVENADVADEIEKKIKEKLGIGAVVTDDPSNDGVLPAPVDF
# measurement protocol: Fluorescence Cell-Free Homogeneous Dose Retest to Identify Inhibitors of RecA-Intein Splicing Activity. [Related pubchem assays (depositor defined):AID2097, AID2223, AID489010, AID492950]
# Type: functional
Active and inactive are the calls of the source.

Which EC50 is reported with Protein RecA (Mycobacterium tuberculosis) for this entry: Cn1c2ccccc2c2cc(C(=O)NNC(=O)CCl)sc21 ?
15.7 µM (active)

Which EC50 is reported with Protein RecA (Mycobacterium tuberculosis) for this entry: COc1cc(/C=N/NC(=S)Nc2cccc(Cl)c2C)ccc1OCC(=O)N1CC(C)OC(C)C1 (stereo not drawn) ?
4 µM (active)

Which EC50 is reported with Protein RecA (Mycobacterium tuberculosis) for this entry: COc1cc(/C=C2/C(=O)N(c3ccc([N+](=O)[O-])cc3)N=C2N2CCOCC2)ccc1O ?
6.68 µM (active)

Which EC50 is reported with Protein RecA (Mycobacterium tuberculosis) for this entry: CCc1ccc(S(=O)(=O)Nc2cc(SCC(=O)O)c(O)c3ccccc23)cc1 ?
0.217 µM (active)

Which EC50 is reported with Protein RecA (Mycobacterium tuberculosis) for this entry: N#Cc1c(N2CCCCC2)nc(N)c2c(N)nc(SCC(=O)O)cc12 ?
9.14 µM (active)

Which EC50 is reported with Protein RecA (Mycobacterium tuberculosis) for this entry: CC1(C)Cc2ccccc2C2=NNC(=O)C2=N1 ?
1.17 µM (active)

Which EC50 is reported with Protein RecA (Mycobacterium tuberculosis) for this entry: [O-][n+]1c2c(nc3c1-c1ccccc1C3O)CCCC2 (stereo not drawn) ?
18.6 µM (active)

Which EC50 is reported with Protein RecA (Mycobacterium tuberculosis) for this entry: O=C(Oc1cccc(OC(=O)c2ccco2)c1)c1ccco1 ?
19.8 µM (active)

Which EC50 is reported with Protein RecA (Mycobacterium tuberculosis) for this entry: CC1=NN(c2ccccc2)C(=O)/C1=C/c1cccc(C)c1 ?
1.58 µM (active)

Which EC50 is reported with Protein RecA (Mycobacterium tuberculosis) for this entry: C=C(C)CN=C(S)N=Nc1c(O)[nH]c2ccc([N+](=O)[O-])cc12 ?
151 µM (inconclusive)

Which EC50 is reported with Protein RecA (Mycobacterium tuberculosis) for this entry: CCOc1ccc(CN2CCN(CC3=Cc4cccc(OC)c4OC3)CC2CCO)cc1 (stereo not drawn) ?
> 380 µM (inactive)

Which EC50 is reported with Protein RecA (Mycobacterium tuberculosis) for this entry: Nc1ccc(N(CCO)CCO)cc1 ?
> 380 µM (inconclusive)

Which EC50 is reported with Protein RecA (Mycobacterium tuberculosis) for this entry: Oc1c(Cl)cc(Cl)c(Cl)c1Cc1c(O)c(Cl)cc(Cl)c1Cl [HEXACHLOROPHENE] ?
7.27 µM (active)

Which EC50 is reported with Protein RecA (Mycobacterium tuberculosis) for this entry: COC(=O)c1sc(N)c(C(=O)OC)c1Cn1ncc(Cl)c(Cl)c1=O ?
0.541 µM (active)

Which EC50 is reported with Protein RecA (Mycobacterium tuberculosis) for this entry: Cc1cc(O)ccc1Nc1nc(-c2cccs2)cs1 ?
11.5 µM (active)

Which EC50 is reported with Protein RecA (Mycobacterium tuberculosis) for this entry: N#Cc1cc([N+](=O)[O-])c(-n2nnc3ccccc32)c([N+](=O)[O-])c1 ?
25.9 µM (active)

Which EC50 is reported with Protein RecA (Mycobacterium tuberculosis) for this entry: Cc1ccc(C2C(C#N)=C(N)Oc3[nH]c(-c4ccccc4)nc32)o1 (stereo not drawn) ?
5.11 µM (active)

Which EC50 is reported with Protein RecA (Mycobacterium tuberculosis) for this entry: O=[N+]([O-])c1ccc(Sc2cccc[n+]2[O-])c2nonc12 ?
4.93 µM (active)

Which EC50 is reported with Protein RecA (Mycobacterium tuberculosis) for this entry: CCCc1n[nH]c2c1C(c1ccc(OC(=O)N3CCOCC3)c(OC)c1)C(C#N)=C(N)O2 (stereo not drawn) ?
10 µM (active)

Which EC50 is reported with Protein RecA (Mycobacterium tuberculosis) for this entry: O=C(NCc1ccc2c(c1)OCO2)c1nc(S(=O)(=O)Cc2ccccc2F)ncc1Cl ?
3.25 µM (active)

Which EC50 is reported with Protein RecA (Mycobacterium tuberculosis) for this entry: Cc1ccccc1N1C(=O)c2ccccc2C1Nc1cccnc1 (stereo not drawn) ?
> 380 µM (inactive)

Which EC50 is reported with Protein RecA (Mycobacterium tuberculosis) for this entry: COc1ccc(OC)c(C2C(C#N)=C(N)Oc3c2c(C)nn3-c2cccc(Cl)c2)c1 (stereo not drawn) ?
6.94 µM (active)

Which EC50 is reported with Protein RecA (Mycobacterium tuberculosis) for this entry: O=C(Oc1ccc(-n2cnnn2)cc1)c1ccco1 ?
12.7 µM (active)

----------
# measurement protocol: control 3'UTR Renilla luciferase suppression, dose response, counter-screen for Shn3 inhibitor project, cell-based, Clone20-Shn3RL, cherry-picked (AID 624133)
# Type: functional
Calls of active or inactive are those of the source.
endpoint label: AC50

Request the reported AC50 associated with CC(OC(=O)c1ccc(S(C)(=O)=O)c([N+](=O)[O-])c1)C(=O)NC1C2CC3CC(C2)CC1C3 (centres undefined)
7.51 µM (active)

Request the reported AC50 associated with Cc1ccc2[nH]c3c(N4CCN(Cc5ccccc5)CC4)ncnc3c2c1
20.3 µM (active)

Request the reported AC50 associated with Cc1cccc(CS(=O)(=O)c2ncc(Cl)c(C(=O)NCc3ccccc3)n2)c1
14 µM (active)

Request the reported AC50 associated with Cc1ccc(NC(=O)CN(C)CC(=O)Nc2cccc(F)c2)cc1[N+](=O)[O-]
10.1 µM (active)

----------
Would you mind telling me the reported EC50 of each entry?
# test target: Heat shock factor protein 1 (Mus musculus, UniProt P38532)
# Sequence (P38532 whole entry): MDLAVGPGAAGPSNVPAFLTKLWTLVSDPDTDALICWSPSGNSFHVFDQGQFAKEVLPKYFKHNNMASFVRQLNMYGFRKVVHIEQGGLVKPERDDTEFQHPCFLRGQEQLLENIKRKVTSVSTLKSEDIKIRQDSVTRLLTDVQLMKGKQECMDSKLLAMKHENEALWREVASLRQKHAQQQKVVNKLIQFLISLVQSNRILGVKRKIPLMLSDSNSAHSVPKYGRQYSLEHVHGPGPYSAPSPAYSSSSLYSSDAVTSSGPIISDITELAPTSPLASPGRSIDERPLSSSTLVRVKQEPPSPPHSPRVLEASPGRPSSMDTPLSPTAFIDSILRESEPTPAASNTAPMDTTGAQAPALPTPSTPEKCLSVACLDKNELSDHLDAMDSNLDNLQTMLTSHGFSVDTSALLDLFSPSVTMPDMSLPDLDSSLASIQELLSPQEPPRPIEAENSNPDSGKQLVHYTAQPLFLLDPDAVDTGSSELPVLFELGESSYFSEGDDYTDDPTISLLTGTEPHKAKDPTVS
# measurement protocol: HSF1 potentiators in luciferase reporter cells, confirmation, cell-based, NIH3T3, luminescence, dose retest (AID 435004);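 note: stress induced by proteasome inhibitor MG132 added 30 min after compound; luciferase reporter driven by HSF1 response element in NIH3T3 cells; actives raise luminescence as potentiators of the MG132 stress response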
# Assay type: functional
The source made the active and inactive calls.

Request the reported EC50 associated with COc1cc(/C=N/N2CCN(C3c4ccccc4-c4ccccc43)CC2)cc(OC)c1OC
> 260 µM (inactive)

Request the reported EC50 associated with NC(CSCc1cccc(Br)c1)C(=O)O (stereo not given)
> 260 µM (inactive)

Request the reported EC50 associated with CCOC(=O)c1c(NC(=O)CSc2nc3cc(Cl)ccc3c(=O)n2Cc2ccco2)sc(C(=O)N(C)C)c1C
7.33 µM (active)

Request the reported EC50 associated with NS(=O)(=O)c1ccc(CCNC(=O)c2ccc([N+](=O)[O-])s2)cc1
15.7 µM (active)

Request the reported EC50 associated with COCCCNC(=O)c1ccc(NS(C)(=O)=O)cc1
> 260 µM (inactive)

Request the reported EC50 associated with CNC(=O)C1CC(=O)N(c2ccc(OCC(=O)N3CCCC3)cc2)C1 (stereo not given)
> 260 µM (inactive)

Request the reported EC50 associated with Cc1ccc(SCCCCN2CCOCC2)cc1
> 260 µM (inactive)

Request the reported EC50 associated with CCOC(=O)c1c(N2C(=O)C3C4C=CC(O4)C3C2=O)sc2c1CCCC2 (stereo not given)
> 260 µM (inactive)

Request the reported EC50 associated with C/C(=N/Cc1ccco1)C1=C(O)c2ccccc2C1=O
> 260 µM (inactive)

Request the reported EC50 associated with Cc1ccc2nnn(Cc3cccc(C(C)(C)C)c3O)c2c1
> 260 µM (inactive)

Request the reported EC50 associated with O=C(CCS(=O)(=O)c1ccccc1)Nc1ccccn1
> 260 µM (inactive)

Request the reported EC50 associated with CSc1c(C#N)c(N)nc2sc(C(=O)c3ccccc3)c(N)c12
95.5 µM (active)

Request the reported EC50 associated with O=C(Cc1ccccc1)Nc1cc(Cl)ccc1Sc1ccccc1
> 260 µM (inactive)

Request the reported EC50 associated with CCOc1ccc(NC(=O)C2CC(=O)N3CCCN=C3S2)cc1 (stereo not given)
> 260 µM (inactive)

Request the reported EC50 associated with COc1cccc(CNc2ccc([N+](=O)[O-])cc2Cl)c1O
163 µM (active)

Cited source: ChEMBL document CHEMBL1201862
